Data origin: ChEMBL document CHEMBL3758124

- Tested on: A549
- assay comment: Cytotoxicity against human A549 cells assessed as growth inhibition after 72 hrs by ATPlite assay
- Assay type: functional, cell-based
- run conditions: A549, 72 h
For each record, write down the corresponding pIC50.
Give bare numbers, as −log10 of the molar value.

The following compounds have reported results that may help.
1) COc1cccc(C2=CC3=CC(=O)O[C@@]34C[C@@H]2N2CCCC[C@@H]24)c1 ... 6.92
2) COc1cc([C@@H]2c3cc4c(cc3[C@@H](O[C@@H]3O[C@@H]5CO[C@@H](C)O[C@H]5[C@H](O)[C@H]3O)[C@H]3COC(=O)[C@H]23)OCO4)cc(OC)c1O [ETOPOSIDE] ... 6.23
3) O=C1C=C2C=C(c3cccc(Cl)c3)[C@@H]3C[C@@]2(O1)[C@H]1CCCCN31 ... 6.96

Shift focus to the following entry.
What does the record list as pIC50 for Cc1cccc(C2=CC3=CC(=O)O[C@@]34C[C@@H]2N2CCCC[C@@H]24)c1 ?
6.85
